All values here come from patent US4696920A.

tested on: calcium channel binding site for [^3 H]-Nitrendipine (rat brain membranes); test: [^3 H]-Nitrendipine binding to rat brain membranes; parameters: species or system rat (male Wistar); details: compound concentration 1.0 μM; Table 1a
Listed below: Specifically bound [^3 H]-Nitrendipine % of control value values for each entry.
TEST_READOUT: Specifically bound [^3 H]-Nitrendipine % of control value

[
  {
    "SMILES_STRUCTURE": "O=P(O)(O)CC(CCCc1ccccc1)CP(=O)(O)O",
    "TEST_RESULT": "99 % of control value"
  },
  {
    "SMILES_STRUCTURE": "CCOP(=O)(CC(CP(=O)(OCC)OCC)c1ccccn1)OCC",
    "TEST_RESULT": "100 % of control value"
  },
  {
    "SMILES_STRUCTURE": "CCCCOP(=O)(CC(CP(=O)(OCCCC)OCCCC)c1ccccn1)OCCCC",
    "TEST_RESULT": "98 % of control value"
  },
  {
    "SMILES_STRUCTURE": "CCCCOP(=O)(CC(CP(=O)(OCCCC)OCCCC)C(c1ccccc1)c1ccccc1)OCCCC",
    "TEST_RESULT": "112 % of control value"
  },
  {
    "SMILES_STRUCTURE": "O=P(O)(O)CC(Cc1ccc(Cl)cc1)CP(=O)(O)O",
    "TEST_RESULT": "99 % of control value"
  },
  {
    "SMILES_STRUCTURE": "CCOP(=O)(CC(CP(=O)(OCC)OCC)C(c1ccccc1)c1ccccc1)OCC",
    "TEST_RESULT": "110 % of control value"
  },
  {
    "SMILES_STRUCTURE": "CCOP(=O)(CC(Cc1cc(OC)c(OC)c(OC)c1)CP(=O)(OCC)OCC)OCC",
    "TEST_RESULT": "100 % of control value"
  },
  {
    "SMILES_STRUCTURE": "CCOP(=O)(CC(Cc1ccc(Cl)cc1)CP(=O)(OCC)OCC)OCC",
    "TEST_RESULT": "99 % of control value"
  },
  {
    "SMILES_STRUCTURE": "CCCCCOP(=O)(CC(CCCc1ccccc1)CP(=O)(OCCCCC)OCCCCC)OCCCCC",
    "TEST_RESULT": "0 % of control value"
  },
  {
    "SMILES_STRUCTURE": "CCCCCC(CP(=O)(OCCCC)OCCCC)CP(=O)(OCCCC)OCCCC",
    "TEST_RESULT": "26 % of control value"
  },
  {
    "SMILES_STRUCTURE": "CCCCOP(=O)(CC(Cc1ccncc1)CP(=O)(OCCCC)OCCCC)OCCCC",
    "TEST_RESULT": "93 % of control value"
  }
]
